Where these numbers come from: ChEMBL document CHEMBL4130499

assay: Cytotoxicity in human HN6 cells assessed as reduction in cell viability incubated for 24 hrs by MTT assay; format: functional, cell-based; conditions: HN-6, 24 h
Measured IC50 accompanies every entry in the list below.
Quick note: give the figure in nM, leave out the unit.

O=CN/N=C/c1ccc(NS(=O)(=O)c2ccc(-c3ccccc3)cc2)cc1O; 4.94

Okay, next one:
Report IC50 for `NC(=O)c1ccc(NS(=O)(=O)c2ccc(-c3ccccc3)cc2)cc1O` please.
4.73

* * *

assay: Selectivity index, ratio of IC50 for cytotoxicity in human […] cells; assay type: toxicity, cell-based; conditions: HN13 cells and 184B5 cells, read-out: Ratio IC50
Measured selectivity ratio of individual entries

NC(=O)c1ccc(NS(=O)(=O)c2ccc(-c3ccccc3)cc2)cc1O; > 200

--- query ---
Can you share its selectivity ratio? I mean this compound: `O=CN/N=C/c1ccc(NS(=O)(=O)c2ccc(-c3ccccc3)cc2)cc1O`
> 186
